# assay system: Protein cereblon/Bromodomain-containing protein 4 (Homo sapiens, UniProt O60885+Q96SW2)
# Sequence (Q96SW2 whole entry, looked up, other chains not shown): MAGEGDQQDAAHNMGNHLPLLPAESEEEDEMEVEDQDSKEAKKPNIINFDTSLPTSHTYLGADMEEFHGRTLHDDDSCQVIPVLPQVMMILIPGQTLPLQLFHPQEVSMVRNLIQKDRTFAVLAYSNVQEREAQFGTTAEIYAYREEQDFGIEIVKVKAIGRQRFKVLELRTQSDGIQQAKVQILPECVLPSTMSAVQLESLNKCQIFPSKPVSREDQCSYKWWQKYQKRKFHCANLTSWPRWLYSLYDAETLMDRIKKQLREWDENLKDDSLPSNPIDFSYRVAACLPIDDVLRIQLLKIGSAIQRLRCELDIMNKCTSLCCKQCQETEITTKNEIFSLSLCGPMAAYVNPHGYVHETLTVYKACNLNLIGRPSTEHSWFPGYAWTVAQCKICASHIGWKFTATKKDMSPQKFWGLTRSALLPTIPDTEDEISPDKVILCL
# assay comment: Photocaged-PROTAC activity at CRBN/BRD4 in human Ramos cells assessed as […] Brd4 protein degradation pre-incubated for 2 hrs followed by UV light irradiation at 365 nM for 3 mins and measured after 12 hrs by Western blot analysis
# Format: cell-based
Catalogue of compounds with associated DC50

Recorded results for 2 compounds are shown here.
CCN(Cc1cc(OC)c(OC)cc1[N+](=O)[O-])C(=O)c1sc2c(c1C)C(c1ccc(Cl)cc1)=N[C@@H](CC(=O)NCCCCNC(=O)COc1cccc3c1C(=O)N(C1CCC(=O)NC1=O)C3=O)c1nnc(C)n1-2 (some centres not stated) | 1980 nM
COc1cc(CON2C(=O)CCC(N3C(=O)c4cccc(OCC(=O)NCCCCNC(=O)C[C@@H]5N=C(c6ccc(Cl)cc6)c6c(sc(C)c6C)-n6c(C)nnc65)c4C3=O)C2=O)c([N+](=O)[O-])cc1OC (some centres not stated) | 148 nM

With those in mind, consider the next compound.
Task: Report DC50 for "COc1cc(COC(=O)O[C@@H]2C[C@@H](C(=O)NCc3ccc(-c4scnc4C)cc3)N(C(=O)[C@@H](NC(=O)COCCOCCOCCOC(=O)C[C@@H]3N=C(c4ccc(Cl)cc4)c4c(sc(C)c4C)-n4c(C)nnc43)C(C)(C)C)C2)c([N+](=O)[O-])cc1OC" please.
Result: < 30 nM
